pIC50: −log10 of the molar value.
Consider the following pIC50 data for Tyrosine-protein kinase JAK1 (Homo sapiens, UniProt P23458), collected from several reports.

Past entries and their recorded results:
[[record]]
compound = "N#CC[C@H]1CC[C@H](n2c(/N=N/c3ccc(O)c(C(=O)N[C@H](CCCN=C(N)N)C(=O)O)c3)nc3cnc4[nH]ccc4c32)CC1"
experimentalvalue = 8.80

[[record]]
compound = "N#Cc1ccc(-n2c(-c3ccc(CO)o3)nc3cnc4[nH]ccc4c32)cc1"
experimentalvalue = "6.00 to 7.00"

[[record]]
compound = "N#CCn1cc(-n2c(-c3ccc(CO)o3)nc3cnc4[nH]ccc4c32)cn1"
experimentalvalue = "7.00 to 8.00"

[[record]]
compound = "Nc1cc2cc(c1)Nc1nccc(n1)-c1cccc(c1)COC/C=C/COC2"
experimentalvalue = 7.77

[[record]]
compound = "N#CCCn1cc(-n2c(-c3cccc(O)c3)nc3cnc4[nH]ccc4c32)cn1"
experimentalvalue = "7.00 to 8.00"

[[record]]
compound = "N#C[C@H]1CC[C@H](n2c(-c3ccccc3O)nc3cnc4[nH]ccc4c32)CC1 (stereo in doubt)"
experimentalvalue = "7.00 to 8.00"

[[record]]
compound = "N#CC[C@H]1CC[C@H](n2c(/N=N/c3ccc(O)c(C(=O)N[C@H](CCC(=O)O)C(=O)O)c3)nc3cnc4[nH]ccc4c32)CC1"
experimentalvalue = 8.87

[[record]]
compound = "CC(C(=O)NCC(F)(F)F)N1CC[C@H](n2c([C@@H](C)O)nc3cnc4[nH]ccc4c32)C1 (stereo partly shown)"
experimentalvalue = "> 8.00"

[[record]]
compound = "N#CCC1(n2cc(-c3ncnc4[nH]ccc34)cn2)CN(C2CCN(C(=O)c3ccnc(C(F)(F)F)n3)CC2)C1"
experimentalvalue = "> 8.00"

[[record]]
compound = "C=CC(=O)N1CCC(n2c(-c3ncc[nH]3)nc3cnc4[nH]ccc4c32)C1 (stereo in doubt)"
experimentalvalue = "6.00 to 7.00"


*Q* Which pIC50 is reported with Tyrosine-protein kinase JAK1 (Homo sapiens, UniProt P23458) for this entry: N#CCC(CCC(F)(F)F)n1cc(-c2cccc3nc(NC(=O)C4CC4)cn23)cn1 (stereo not shown) ?
*A* 8.18

*Q* Query pIC50 on Tyrosine-protein kinase JAK1 (Homo sapiens, UniProt P23458) for O=C(Nc1nc2cccc(-c3ccc(CN4CCS(=O)(=O)CC4)cc3)n2n1)C1CC1(F)F (stereo not shown)
*A* 6.23

*Q* Form field: pIC50 recorded for C1=C/COCc2cccc(c2)-c2ccnc(n2)Nc2cc(cc(OC/C=C/CN3CCCC3)c2)COC/1 with Tyrosine-protein kinase JAK1 (Homo sapiens, UniProt P23458) (enter value)
*A* 6.31

###

Values of IC50 for Tyrosine-protein kinase JAK1 (Homo sapiens), collected from a number of published sources:

Field: example entries. Status: answers known.
[[record]]
smiles = "N#CCCCn1cc(-n2c(C3CC3)nc3cnc4[nH]ccc4c32)cn1"
experimentalvalue = "100 to 1000 nM"

[[record]]
smiles = "C[C@@H](O)c1nc2cnc3[nH]ccc3c2n1[C@@H]1CN(CCCC(F)(F)F)C[C@H]1F"
experimentalvalue = "< 10 nM"

[[record]]
smiles = "N#CCC1CCN(n2c(/N=N/c3ccc(O)c(C(=O)O)c3)nc3cnc4[nH]ccc4c32)CC1"
experimentalvalue = "1 nM"


*Q* # IC50 lookup, item N#CCC1(n2cc(-c3ncnc4[nH]ccc34)cn2)CN(C2CCN(C(=O)Nc3ccc(F)cc3C(F)(F)F)CC2)C1
*A* < 10 nM

###

This section presents IC50 values reported for Tyrosine-protein kinase JAK1 (Homo sapiens) in the literature.

These solved cases illustrate the format of a correct answer.
[[record]]
molecule = "Cc1ccc(S(=O)(=O)N2CCC(n3c([C@@H](C)O)nc4cnc5[nH]ccc5c43)C2)cc1 (some centres unmarked)"
experimentalvalue = "100 to 1000 nM"

[[record]]
molecule = "C[C@@H](OC(=O)C(C)(C)Oc1ccccc1/N=N/c1ccc(O)c(C(=O)O)c1)c1nc2cnc3[nH]ccc3c2n1N1CCC(CC#N)CC1"
experimentalvalue = "7.04 nM"

[[record]]
molecule = "N#CCCn1cc(-n2cnc3cnc4[nH]ccc4c32)cn1"
experimentalvalue = "100 to 1000 nM"

[[record]]
molecule = "C[C@@H](O)c1nc2cnc3[nH]ccc3c2n1C1CCN(C(=O)c2ccc(C#N)cc2)C1 (some centres unmarked)"
experimentalvalue = "100 to 1000 nM"

[[record]]
molecule = "CCCCS(=O)(=O)N1CC(CC#N)(n2cc(-n3c(-c4ccc(CO)o4)nc4cnc5[nH]ccc5c43)cn2)C1"
experimentalvalue = "100 to 1000 nM"

[[record]]
molecule = "N#CCC(C1CCN(c2nc3cccnc3o2)C1)n1cc(-c2ncnc3[nH]ccc23)cn1 (centres unmarked)"
experimentalvalue = "< 10 nM"

[[record]]
molecule = "Cc1ccc(-c2nc3cnc4[nH]ccc4c3n2-c2cnn(CCC#N)c2)s1"
experimentalvalue = "10 to 100 nM"


Attention now shifts to the item below.
*Q* Consider the molecule shown here: N#CCC1CCN(n2c(N)nc3cnc4ccsc4c32)CC1 What is its recorded IC50?
*A* 0.47 nM

###

Consider the following IC50 data for Tyrosine-protein kinase JAK1 (Homo sapiens), collected from several reports.

Past entries and their recorded results:
[[record]]
molecule = "Cn1cc(-c2cn3ncnc3c(-c3ccn([C@]4(CC#N)C[C@H](C#N)C4)c3)n2)cn1"
experimentalvalue = "1210 nM"

[[record]]
molecule = "C[C@@H](O)c1nc2cnc3[nH]ccc3c2n1[C@H]1CCN(CCC#N)C1"
experimentalvalue = "10 to 100 nM"

[[record]]
molecule = "C[C@@H](O)c1nc2cnc3[nH]ccc3c2n1[C@H]1CCN(CCC(F)(F)F)C1"
experimentalvalue = "< 10 nM"

[[record]]
molecule = "C[C@@H](O)c1nc2cnc3[nH]ccc3c2n1C1CCN(CC#N)C1 (some centres unmarked)"
experimentalvalue = "10 to 100 nM"

[[record]]
molecule = "CCS(=O)(=O)N1CC(CC#N)(n2cc(-n3c(-c4ccc(C)o4)nc4cnc5[nH]ccc5c43)cn2)C1"
experimentalvalue = "100 to 1000 nM"


*Q* Test system Tyrosine-protein kinase JAK1 (Homo sapiens); read-out IC50; what value for N#Cc1ccc(-n2c(-c3cccc(O)c3)nc3cnc4[nH]ccc4c32)cc1 ?
*A* 10 to 100 nM

*Q* Record O=C(/C=C/C(=O)N1CCNCC1)Nc1cc2cc(c1)Nc1nccc(n1)-c1cccc(c1)COC/C=C/COC2 : what is its IC50 with Tyrosine-protein kinase JAK1 (Homo sapiens)?
*A* 167 nM

*Q* Identify the measured IC50 of C[C@@H]1CN(C(=O)CC#N)CC=C1c1cc(NC(=O)C2CC2)nc2[nH]ccc12 for Tyrosine-protein kinase JAK1 (Homo sapiens).
*A* 3.8 nM

*Q* Short answer please: IC50, Tyrosine-protein kinase JAK1 (Homo sapiens), entry Oc1cccc(-c2nc3cnc4[nH]ccc4c3n2[C@H]2CCN(CCCC(F)(F)F)C2)c1
*A* 10 to 100 nM

*Q* Provide value of IC50 for this record tested with Tyrosine-protein kinase JAK1 (Homo sapiens): N#CC[C@]1(n2cc(-c3ncnc4[nH]ccc34)cn2)C[C@H](N2CCC(Oc3cc(CN4CCC[C@H]4CO)cc(C(F)(F)F)n3)CC2)C1
*A* < 10 nM

*Q* Checklist item: IC50 tested on Tyrosine-protein kinase JAK1 (Homo sapiens), entry C[C@@H](O)c1nc2cnc3[nH]ccc3c2n1[C@H]1CCN(CC(=O)NCC(F)(F)F)C1 , value?
*A* < 10 nM

*Q* Look up IC50 with Tyrosine-protein kinase JAK1 (Homo sapiens) for this molecule: C[C@@H](O)c1nc2cnc3[nH]ccc3c2n1[C@H]1CCN(CCCC#N)C1
*A* < 10 nM

*Q* Find IC50 (Tyrosine-protein kinase JAK1 (Homo sapiens)) for the entry N#CCCCn1cc(-n2cnc3cnc4[nH]ccc4c32)cn1
*A* 10 to 100 nM

*Q* Find the measured IC50: item C[C@@H](CO)NCc1cc(OC2CCN([C@H]3C[C@](CC#N)(n4cc(-c5ncnc6[nH]ccc56)cn4)C3)CC2)nc(C(F)(F)F)c1 , target or system Tyrosine-protein kinase JAK1 (Homo sapiens).
*A* < 10 nM

*Q* Any idea what IC50 came out for O=C(Nc1cn2c(-c3ccc(CN4CCS(=O)(=O)CC4)cc3F)cccc2n1)C1CC1F (centres unmarked) on Tyrosine-protein kinase JAK1 (Homo sapiens)?
*A* 88.7 nM

*Q* Give Tyrosine-protein kinase JAK1 (Homo sapiens) IC50 for N#CC[C@]1(n2cc(-c3ncnc4[nH]ccc34)cn2)C[C@H](N2CCC(Oc3cc(CCO)cc(C(F)(F)F)n3)CC2)C1
*A* < 10 nM

*Q* Can you look up IC50 on Tyrosine-protein kinase JAK1 (Homo sapiens) for N#C[C@H]1CC[C@H](n2c(-c3ccccc3F)nc3cnc4[nH]ccc4c32)CC1 (stereo in doubt) ?
*A* 10 to 100 nM

*Q* What value of IC50 on Tyrosine-protein kinase JAK1 (Homo sapiens) does CCNCc1cc(O[C@H]2CC[C@@H](N3CC(CC#N)(n4cc(-c5ncnc6[nH]ccc56)cn4)C3)CC2)nc(C(F)(F)F)c1 have?
*A* < 10 nM

*Q* Please provide the recorded IC50 for N#CC[C@H]1CC[C@H](n2c(/N=N/c3ccc(O)c(C(=O)N[C@H](CCCCN)C(=O)O)c3)nc3cnc4[nH]ccc4c32)CC1 , tested on Tyrosine-protein kinase JAK1 (Homo sapiens).
*A* 2.52 nM

*Q* Requested read-out IC50, target or system Tyrosine-protein kinase JAK1 (Homo sapiens), entry O=C(Nc1nc2cccc(-c3ccc(CN4CCS(=O)(=O)CC4)cc3)n2n1)C1(F)CC1
*A* 3640 nM
